measured target: GST-WRKY1(266-371) (Arabidopsis thaliana, UniProt Q9SI37 266-371)
Sequence (Q9SI37 266-371): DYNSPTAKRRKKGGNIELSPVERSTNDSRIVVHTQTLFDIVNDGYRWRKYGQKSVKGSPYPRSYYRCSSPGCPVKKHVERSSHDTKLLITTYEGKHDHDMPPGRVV
experimental protocol: universal protein binding microarray (PBM); high values mean tight binding
assay setup: protein: recombinant; tags: GST; dsDNA, one strand shown

{"input sequence": "AAGTCTAC", "binding signal / E-score": 0.412}
{"input sequence": "CTGACCAC", "binding signal / E-score": 0.41}
{"input sequence": "AAGTCATC", "binding signal / E-score": 0.406}
{"input sequence": "GTACGTAA", "binding signal / E-score": 0.0843}
{"input sequence": "TACGGTCA", "binding signal / E-score": 0.442}
{"input sequence": "AGCTTGAC", "binding signal / E-score": 0.447}
{"input sequence": "GTAGTCAA", "binding signal / E-score": 0.478}
{"input sequence": "CTTGACTA", "binding signal / E-score": 0.462}
{"input sequence": "ACCAGTCA", "binding signal / E-score": 0.421}
{"input sequence": "TAGGGTCA", "binding signal / E-score": 0.42}
{"input sequence": "CCGTCAAC", "binding signal / E-score": 0.451}
{"input sequence": "ATGGTCAG", "binding signal / E-score": 0.421}
{"input sequence": "AATGCGTG", "binding signal / E-score": 0.087}
{"input sequence": "ACTAAGTA", "binding signal / E-score": 0.0999}
{"input sequence": "AGTCAGAG", "binding signal / E-score": 0.44}
{"input sequence": "AGGTCAGC", "binding signal / E-score": 0.451}
{"input sequence": "ATACGTCA", "binding signal / E-score": 0.196}
{"input sequence": "GCATTGAC", "binding signal / E-score": 0.47}
{"input sequence": "ACGGTCAA", "binding signal / E-score": 0.49}
{"input sequence": "TGGTCAAA", "binding signal / E-score": 0.491}
{"input sequence": "TTAAGGAA", "binding signal / E-score": 0.0668}
{"input sequence": "GTCAAGAA", "binding signal / E-score": 0.436}
{"input sequence": "CTGACCTA", "binding signal / E-score": 0.413}
{"input sequence": "ACGCAACC", "binding signal / E-score": 0.107}
{"input sequence": "ACACGTCT", "binding signal / E-score": 0.114}
{"input sequence": "TCGGTCAA", "binding signal / E-score": 0.49}
{"input sequence": "AAGGAATG", "binding signal / E-score": 0.0844}
{"input sequence": "CTACGTTA", "binding signal / E-score": 0.0835}
{"input sequence": "AGGTCAAC", "binding signal / E-score": 0.492}
{"input sequence": "CGATTGAC", "binding signal / E-score": 0.443}
{"input sequence": "ACGTAAAG", "binding signal / E-score": 0.103}
{"input sequence": "CTGACCGC", "binding signal / E-score": 0.425}
{"input sequence": "GAGTCAGC", "binding signal / E-score": 0.418}

###

Entries annotated with measured binding signal
measured target: GST-ANAC092(1-285) full length (Arabidopsis thaliana, UniProt Q9FKA0 1-285)
Sequence: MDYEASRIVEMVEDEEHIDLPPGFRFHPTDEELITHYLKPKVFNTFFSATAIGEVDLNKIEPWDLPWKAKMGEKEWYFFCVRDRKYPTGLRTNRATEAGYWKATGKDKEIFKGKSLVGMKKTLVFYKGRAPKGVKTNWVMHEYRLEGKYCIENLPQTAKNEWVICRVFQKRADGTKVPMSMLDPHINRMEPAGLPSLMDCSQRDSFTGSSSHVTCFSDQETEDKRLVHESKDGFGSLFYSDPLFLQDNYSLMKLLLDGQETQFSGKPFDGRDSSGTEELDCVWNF
experimental protocol: universal protein binding microarray (PBM); transcription factors of Arabidopsis thaliana; high values mean tight binding
assay setup: protein: recombinant; tags: GST; chain copies: 2; dsDNA, one strand shown
measurement type: binding signal (E-score)

{"input sequence": "TACGTCAA", "assay value": 0.417}
{"input sequence": "GCGTAATA", "assay value": 0.324}
{"input sequence": "CAGTCAAG", "assay value": 0.063}
{"input sequence": "TGCGTGAA", "assay value": 0.414}
{"input sequence": "ACGCAATG", "assay value": 0.456}
{"input sequence": "GTCGCGTA", "assay value": 0.414}
{"input sequence": "TTACTCAA", "assay value": 0.359}
{"input sequence": "CAGGGAAA", "assay value": 0.102}
{"input sequence": "CAAGTTAC", "assay value": 0.411}
{"input sequence": "AGCGTGTC", "assay value": 0.432}
{"input sequence": "ACCGTTGA", "assay value": 0.205}
{"input sequence": "TAAGTTAA", "assay value": 0.3}
{"input sequence": "AATGCGTA", "assay value": 0.387}
